Assay: Phase I first-in-human study, pharmacokinetics after single ascending subcutaneous doses in healthy volunteers
Format: in vivo
Conditions: human, plasma; single SC dose 8 mg; nominal time 8 h; mean; read-out: Plasma Concentration AXN-001
Bridge positions count the residues as written; N and C are the ends. Square brackets hold non-standard residues; d marks the D form. Peptide text beside a SMILES is read from it. * marks the point of attachment. Phe(2-CONH2) = NC(=O)c1ccccc1C[C@H](N)C(=O)O; Orn(iPr) = CC(C)NCCC[C@H](N)C(=O)O; Oxazole2carbonyl = O=C(c1ncco1)*; 3Pal = N[C@@H](Cc1cccnc1)C(=O)O
MEASURE: level at 8 h (ng/mL)
Only the number, expressed in ng/mL, is required.

Per the record, CC(C)NCCC[C@@H]1NC(=O)[C@@H](NC(=O)[C@H](Cc2ccccc2C(N)=O)NC(=O)[C@H](NC(=O)c2ncco2)C(C)C)CSSC[C@@H](C(=O)N[C@@H](Cc2cccnc2)C(N)=O)NC(=O)[C@H](Cc2ccccc2)NC(=O)[C@@H]2CCCN2C(=O)CNC(=O)[C@H](C(C)C)NC(=O)[C@H](CC(=O)O)NC1=O [AXN-001] (Oxazole2carbonyl-[dV][Phe(2-CONH2)]C[Orn(iPr)]DVGPFC[3Pal]-NH2; disulfide 3-10) has level at 8 h of 5.8

---

Test: Phase I first-in-human study, pharmacokinetics after single ascending subcutaneous doses in healthy volunteers
Assay type: in vivo
Conditions: human, plasma; single SC dose 16 mg; nominal time 0.33 h; mean; read-out: Plasma Concentration AXN-001
Bridge positions count the residues as written; N and C are the ends. Square brackets hold non-standard residues; d marks the D form. Peptide text beside a SMILES is read from it. * marks the point of attachment. Phe(2-CONH2) = NC(=O)c1ccccc1C[C@H](N)C(=O)O; Orn(iPr) = CC(C)NCCC[C@H](N)C(=O)O; Oxazole2carbonyl = O=C(c1ncco1)*; 3Pal = N[C@@H](Cc1cccnc1)C(=O)O
MEASURE: level at 0.33 h (ng/mL)
Only the number, expressed in ng/mL, is required.

Per the record, CC(C)NCCC[C@@H]1NC(=O)[C@@H](NC(=O)[C@H](Cc2ccccc2C(N)=O)NC(=O)[C@H](NC(=O)c2ncco2)C(C)C)CSSC[C@@H](C(=O)N[C@@H](Cc2cccnc2)C(N)=O)NC(=O)[C@H](Cc2ccccc2)NC(=O)[C@@H]2CCCN2C(=O)CNC(=O)[C@H](C(C)C)NC(=O)[C@H](CC(=O)O)NC1=O [AXN-001] (Oxazole2carbonyl-[dV][Phe(2-CONH2)]C[Orn(iPr)]DVGPFC[3Pal]-NH2; disulfide 3-10) has level at 0.33 h of 183

---

Experiment: Phase I first-in-human study, pharmacokinetics after single ascending subcutaneous doses in healthy volunteers
Assay type: in vivo
Conditions: human, plasma; single SC dose 4 mg; nominal time 0.25 h; mean; read-out: Plasma Concentration AXN-001
Bridge positions count the residues as written; N and C are the ends. Square brackets hold non-standard residues; d marks the D form. Peptide text beside a SMILES is read from it. * marks the point of attachment. Phe(2-CONH2) = NC(=O)c1ccccc1C[C@H](N)C(=O)O; Orn(iPr) = CC(C)NCCC[C@H](N)C(=O)O; Oxazole2carbonyl = O=C(c1ncco1)*; 3Pal = N[C@@H](Cc1cccnc1)C(=O)O
MEASURE: level at 0.25 h (ng/mL)
Only the number, expressed in ng/mL, is required.

Per the record, CC(C)NCCC[C@@H]1NC(=O)[C@@H](NC(=O)[C@H](Cc2ccccc2C(N)=O)NC(=O)[C@H](NC(=O)c2ncco2)C(C)C)CSSC[C@@H](C(=O)N[C@@H](Cc2cccnc2)C(N)=O)NC(=O)[C@H](Cc2ccccc2)NC(=O)[C@@H]2CCCN2C(=O)CNC(=O)[C@H](C(C)C)NC(=O)[C@H](CC(=O)O)NC1=O [AXN-001] (Oxazole2carbonyl-[dV][Phe(2-CONH2)]C[Orn(iPr)]DVGPFC[3Pal]-NH2; disulfide 3-10) has level at 0.25 h of 71.4

---

Test: Phase I first-in-human study, pharmacokinetics after single ascending subcutaneous doses in healthy volunteers
Format: in vivo
Conditions: human, plasma; single SC dose 2 mg; mean
Bridge positions count the residues as written; N and C are the ends. Square brackets hold non-standard residues; d marks the D form. Peptide text beside a SMILES is read from it. * marks the point of attachment. Phe(2-CONH2) = NC(=O)c1ccccc1C[C@H](N)C(=O)O; Orn(iPr) = CC(C)NCCC[C@H](N)C(=O)O; Oxazole2carbonyl = O=C(c1ncco1)*; 3Pal = N[C@@H](Cc1cccnc1)C(=O)O
MEASURE: AUC(0-t) (µg·h/mL)
Only the number, expressed in µg·h/mL, is required.

Per the record, CC(C)NCCC[C@@H]1NC(=O)[C@@H](NC(=O)[C@H](Cc2ccccc2C(N)=O)NC(=O)[C@H](NC(=O)c2ncco2)C(C)C)CSSC[C@@H](C(=O)N[C@@H](Cc2cccnc2)C(N)=O)NC(=O)[C@H](Cc2ccccc2)NC(=O)[C@@H]2CCCN2C(=O)CNC(=O)[C@H](C(C)C)NC(=O)[C@H](CC(=O)O)NC1=O [AXN-001] (Oxazole2carbonyl-[dV][Phe(2-CONH2)]C[Orn(iPr)]DVGPFC[3Pal]-NH2; disulfide 3-10) has AUC(0-t) of 0.159

---

Test: Phase I first-in-human study, pharmacokinetics after single ascending subcutaneous doses in healthy volunteers
Type: in vivo
Details: human, plasma; single SC dose 16 mg; nominal time 0.75 h; mean; read-out: Plasma Concentration AXN-001
Experimental: For Phase I clinical studies, the 32 mg/mL pharmaceutical composition was dosed subcutaneously. […] Participants were administered a single dose (0.5 mL) of AXN-001 or placebo via subcutaneous (SC) injection into the abdomen. […] Individual plasma concentrations of ANX-001 were determined and used for analyses. Pharmacokinetic (PK) parameters of AXN-001 were determined using Phoenix WinNonlin version 8.3. […]
Bridge positions count the residues as written; N and C are the ends. Square brackets hold non-standard residues; d marks the D form. Peptide text beside a SMILES is read from it. * marks the point of attachment. Phe(2-CONH2) = NC(=O)c1ccccc1C[C@H](N)C(=O)O; Orn(iPr) = CC(C)NCCC[C@H](N)C(=O)O; Oxazole2carbonyl = O=C(c1ncco1)*; 3Pal = N[C@@H](Cc1cccnc1)C(=O)O
MEASURE: level at 0.75 h (ng/mL)
Only the number, expressed in ng/mL, is required.

Per the record, CC(C)NCCC[C@@H]1NC(=O)[C@@H](NC(=O)[C@H](Cc2ccccc2C(N)=O)NC(=O)[C@H](NC(=O)c2ncco2)C(C)C)CSSC[C@@H](C(=O)N[C@@H](Cc2cccnc2)C(N)=O)NC(=O)[C@H](Cc2ccccc2)NC(=O)[C@@H]2CCCN2C(=O)CNC(=O)[C@H](C(C)C)NC(=O)[C@H](CC(=O)O)NC1=O [AXN-001] (Oxazole2carbonyl-[dV][Phe(2-CONH2)]C[Orn(iPr)]DVGPFC[3Pal]-NH2; disulfide 3-10) has level at 0.75 h of 355

---

Assay: Phase I first-in-human study, pharmacokinetics after single ascending subcutaneous doses in healthy volunteers
Format: in vivo
Conditions: human, plasma; single SC dose 1 mg; mean
Protocol: For Phase I clinical studies, the 32 mg/mL pharmaceutical composition was dosed subcutaneously. […] Participants were administered a single dose (0.5 mL) of AXN-001 or placebo via subcutaneous (SC) injection into the abdomen. […] Individual plasma concentrations of ANX-001 were determined and used for analyses. Pharmacokinetic (PK) parameters of AXN-001 were determined using Phoenix WinNonlin version 8.3. […]
Bridge positions count the residues as written; N and C are the ends. Square brackets hold non-standard residues; d marks the D form. Peptide text beside a SMILES is read from it. * marks the point of attachment. Phe(2-CONH2) = NC(=O)c1ccccc1C[C@H](N)C(=O)O; Orn(iPr) = CC(C)NCCC[C@H](N)C(=O)O; Oxazole2carbonyl = O=C(c1ncco1)*; 3Pal = N[C@@H](Cc1cccnc1)C(=O)O
MEASURE: half-life (h)
Only the number, expressed in h, is required.

Per the record, CC(C)NCCC[C@@H]1NC(=O)[C@@H](NC(=O)[C@H](Cc2ccccc2C(N)=O)NC(=O)[C@H](NC(=O)c2ncco2)C(C)C)CSSC[C@@H](C(=O)N[C@@H](Cc2cccnc2)C(N)=O)NC(=O)[C@H](Cc2ccccc2)NC(=O)[C@@H]2CCCN2C(=O)CNC(=O)[C@H](C(C)C)NC(=O)[C@H](CC(=O)O)NC1=O [AXN-001] (Oxazole2carbonyl-[dV][Phe(2-CONH2)]C[Orn(iPr)]DVGPFC[3Pal]-NH2; disulfide 3-10) has half-life of 1.31

---

Test: Phase I first-in-human study, pharmacokinetics after single ascending subcutaneous doses in healthy volunteers
Assay type: in vivo
Conditions: human, plasma; single SC dose 8 mg; nominal time 0.50 h; mean; read-out: Plasma Concentration AXN-001
Bridge positions count the residues as written; N and C are the ends. Square brackets hold non-standard residues; d marks the D form. Peptide text beside a SMILES is read from it. * marks the point of attachment. Phe(2-CONH2) = NC(=O)c1ccccc1C[C@H](N)C(=O)O; Orn(iPr) = CC(C)NCCC[C@H](N)C(=O)O; Oxazole2carbonyl = O=C(c1ncco1)*; 3Pal = N[C@@H](Cc1cccnc1)C(=O)O
MEASURE: level at 0.5 h (ng/mL)
Only the number, expressed in ng/mL, is required.

Per the record, CC(C)NCCC[C@@H]1NC(=O)[C@@H](NC(=O)[C@H](Cc2ccccc2C(N)=O)NC(=O)[C@H](NC(=O)c2ncco2)C(C)C)CSSC[C@@H](C(=O)N[C@@H](Cc2cccnc2)C(N)=O)NC(=O)[C@H](Cc2ccccc2)NC(=O)[C@@H]2CCCN2C(=O)CNC(=O)[C@H](C(C)C)NC(=O)[C@H](CC(=O)O)NC1=O [AXN-001] (Oxazole2carbonyl-[dV][Phe(2-CONH2)]C[Orn(iPr)]DVGPFC[3Pal]-NH2; disulfide 3-10) has level at 0.5 h of 199
